conditions: in ethyl formate, 298.15 K

smiles string	solubility (mole fraction)
COc1ccc(C(=O)O)cc1	0.00738

---

settings: in n-pentanol, 298.15 K

smiles string	solubility (mole fraction)
COc1ccc(C(=O)O)cc1	0.012

---

conditions: in n-pentanol, 318.15 K

smiles string	solubility (mole fraction)
COc1ccc(C(=O)O)cc1	0.0234

---

conditions: in toluene, 298.15 K

smiles string	solubility (mole fraction)
COc1ccc(C(=O)O)cc1	0.00152

---

settings: in n-butanol, 303.15 K

smiles string	solubility (mole fraction)
COc1ccc(C(=O)O)cc1	0.0133

---

settings: in toluene, 328.15 K
endpoint name: solubility (mole fraction)

smiles string	reported value
COc1ccc(C(=O)O)cc1	0.0054
